Readings of pIC50 for the listed compounds
Biological target: WRN helicase (Homo sapiens (Human), UniProt Q14191)
Sequence (Q14191 517-1238): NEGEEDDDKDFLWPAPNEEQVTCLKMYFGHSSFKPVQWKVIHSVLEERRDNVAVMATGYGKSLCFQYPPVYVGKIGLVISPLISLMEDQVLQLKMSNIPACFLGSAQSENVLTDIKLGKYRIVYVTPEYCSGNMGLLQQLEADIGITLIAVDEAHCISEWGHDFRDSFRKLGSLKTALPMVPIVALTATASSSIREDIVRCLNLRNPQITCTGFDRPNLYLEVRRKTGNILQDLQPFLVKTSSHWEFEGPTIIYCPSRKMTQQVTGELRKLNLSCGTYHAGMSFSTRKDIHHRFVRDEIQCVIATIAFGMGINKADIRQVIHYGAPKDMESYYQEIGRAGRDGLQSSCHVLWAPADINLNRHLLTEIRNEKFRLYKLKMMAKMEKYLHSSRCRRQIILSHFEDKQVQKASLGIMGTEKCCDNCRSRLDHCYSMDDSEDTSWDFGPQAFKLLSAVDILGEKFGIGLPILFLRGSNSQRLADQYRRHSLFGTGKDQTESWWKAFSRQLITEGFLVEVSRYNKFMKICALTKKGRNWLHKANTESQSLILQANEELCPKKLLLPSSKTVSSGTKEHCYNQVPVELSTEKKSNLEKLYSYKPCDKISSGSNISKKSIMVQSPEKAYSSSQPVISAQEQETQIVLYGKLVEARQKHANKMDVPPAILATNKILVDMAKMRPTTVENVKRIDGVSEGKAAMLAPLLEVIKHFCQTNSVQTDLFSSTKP
Test: In vitro enzymatic activity assay on WRN helicase (DNA dependent ATPase assay, ADP-Glo)
Type: biochemical
Details: geometric means of at least 2 determinations; read-out: WRN ATPase Activity (IC50)
Scale explanation: pIC50 corresponds to minus log10 of a concentration expressed in moles per litre.

# annotated cases, reported pIC50 shown
>>> val("CCc1c(N2CCN(C(=O)c3ncccc3O)CC2)c(=O)n2nc(C3=COCCO3)nc2n1CC(=O)Nc1ccc(C(F)(F)F)cc1C")
7.40
>>> val("CCc1c(N2CCN(C(=O)c3ncnc(C)c3O)CC2)c(=O)n2nc(C3=CCOCC3)nc2n1CC(=O)Nc1ccc(Br)cc1Cl")
7.22
>>> val("CCc1c(N2CCN(C(=O)c3ncccc3O)CC2)c(=O)n2nc(C3=CCOCC3)nc2n1CC(=O)Nc1cnc(C(F)(F)F)cc1Cl")
6.59
>>> val("CCc1c(N2CCN(C(=O)c3nc(N4CCN(C)CC4)ncc3O)CC2)c(=O)n2nc(C3=CCOCC3)nc2n1CC(=O)Nc1ccc(C(F)(F)F)cc1C")
7.10
>>> val("CCc1c(N2CCN(C(=O)c3nccc(F)c3O)CC2)c(=O)n2nc(C3=CCOCC3)nc2n1CC(=O)Nc1ccc(C(F)(F)F)nc1Cl")
7.15

# input State the recorded pIC50 for this entry: CCc1c(N2CCN(C(=O)c3nccc(Cl)c3O)CC2)c(=O)n2nc(C3=CCOCC3)nc2n1CC(=O)Nc1ccc(C(F)(F)F)c(F)c1C
# output 7.70

# input State the recorded pIC50 for this entry: CCc1c(N2CCN(C(=O)c3ncccc3O)CC2)c(=O)n2nc(C3=CCOCC3)nc2n1CC(=O)Nc1ccc(C(F)(F)F)cc1Cl
# output 7.22

# input State the recorded pIC50 for this entry: CCc1c(N2CCN(C(=O)c3ncnc(C)c3O)[C@H](C)[C@@H]2C)c(=O)n2nc(C3=CCOCC3)nc2n1CC(=O)Nc1ccc(C(F)(F)F)cc1Cl (single isomer, unassigned)
# output 6.82

# input State the recorded pIC50 for this entry: CCc1c(N2CCN(C(=O)c3ncccc3O)CC2)c(=O)n2nc(C3=CCOCC3)nc2n1CC(=O)Nc1ccc(C(F)(F)F)cc1F
# output 7.30

# input State the recorded pIC50 for this entry: CCc1c(N2CCN(C(=O)c3ncnc(C)c3O)CC2)c(=O)n2nc(C3=CCOCC3)nc2n1CC(=O)Nc1ccc(C(F)(F)F)cc1F
# output 7.30

# input State the recorded pIC50 for this entry: CCc1c(N2CCN(C(=O)c3ncccc3O)CC2)c(=O)n2nc(C3=CCOCC3)nc2n1CC(=O)Nc1cnc(C(F)(F)F)cc1C
# output 6.60

# input State the recorded pIC50 for this entry: CCc1c(N2CCN(C(=O)c3ncccc3O)CC2)c(=O)n2nc(C3=CCOCC3)nc2n1CC(=O)Nc1cc(F)c(C(F)(F)F)nc1Cl
# output 6.74

* * *

Biological target: UniProtKB Q14191
Test: In vitro enzymatic activity assay on WRN helicase (DNA dependent ATPase assay, ADP-Glo)
Assay type: biochemical
Settings: geometric means of at least 2 determinations; read-out: WRN ATPase Activity (IC50)
Description: An ATPase assay was set up to measure the DNA dependent ATP hydrolysis activity of WRN helicase. This assay was used also to assess the inhibition properties of compounds of the invention on DNA dependent WRN ATPase activity. The core helicase motif of the WRN protein (aa N517-P1238) was produced for this assay (protein production as described above). […]
pIC50: −log10 of the molar value.
Classify by measured pIC50: satisfied if it is equal to or exceeds 7, not satisfied if it is smaller.

Record excerpt, results attached:
>>> class_assignment("CCc1c(N2CCN(C(=O)c3ncnc(C)c3O)CC2)c(=O)n2nc(C3=CCCCO3)nc2n1CC(=O)Nc1ccc(C(F)(F)F)nc1C")
"not satisfied"
>>> class_assignment("CCc1c(N2CCN(C(=O)c3ncccc3O)CC2)c(=O)n2nc(N3CCC[C@@H](F)C3)nc2n1CC(=O)Nc1ccc(C(F)(F)F)nc1Cl [Example 16a]")
"not satisfied"
>>> class_assignment("CCc1c(N2CCN(C(=O)c3ncc(Cl)cc3O)CC2)c(=O)n2nc(C3=CCOCC3)nc2n1CC(=O)Nc1ccc(C(F)(F)F)cc1C")
"satisfied"
>>> class_assignment("CCc1c(N2CCN(C(=O)c3nc(C)cc(F)c3O)CC2)c(=O)n2nc(C3=CCOCC3)nc2n1CC(=O)Nc1ccc(C(F)(F)F)cc1C")
"satisfied"
>>> class_assignment("CCc1c(N2CCN(C(=O)c3ncnc(C)c3O)[C@@H](C)[C@@H]2C)c(=O)n2nc(C3=CCOCC3)nc2n1CC(=O)Nc1ccc(C(F)(F)F)cc1Cl")
"not satisfied"
>>> class_assignment("CCc1c(N2CCN(C(=O)c3ncccc3O)CC2)c(=O)n2nc(N3CCCC3)nc2n1CC(=O)Nc1ccc(C(F)(F)F)nc1Cl")
"not satisfied"

# input Is pIC50 at least 7? Consider CCc1c(N2CCN(C(=O)c3nc(C)cc(F)c3O)CC2)c(=O)n2nc(C3=CCOCC3)nc2n1CC(=O)Nc1ccc(C(F)(F)F)cc1Cl
# output satisfied

# input Is pIC50 at least 7? Consider CCc1c(N2CCN(C(=O)c3nccc(C)c3O)CC2)c(=O)n2nc(C3=CCOCC3)nc2n1CC(=O)Nc1ccc(C(F)(F)F)cc1
# output satisfied

# input Is pIC50 at least 7? Consider Cc1nc(C(F)(F)F)ccc1NC(=O)Cn1c(C)c(N2CCN(C(=O)c3ncccc3O)CC2)c(=O)n2nc(C3=CCOCC3)nc12
# output not satisfied

# input Is pIC50 at least 7? Consider CCc1c(N2CCN(C(=O)c3ncccc3O)CC2)c(=O)n2nc(C3=CCOCC3)nc2n1CC(=O)Nc1ccc(C(F)(F)F)nc1C
# output not satisfied

* * *

Target: WRN helicase (Homo sapiens (Human), UniProt Q14191)
Assay: In vitro enzymatic activity assay on WRN helicase (DNA dependent ATPase assay, ADP-Glo)
Format: biochemical
Conditions: geometric means of at least 2 determinations; read-out: WRN ATPase Activity (IC50)
Criterion: IC50 strictly less than 0.1 µM. Met: true. Not met: false.

Record excerpt, results attached:
>>> class_assignment("CCc1c(N2CCN(C(=O)c3nccc(Cl)c3O)CC2)c(=O)n2nc(C3=CCOCC3)nc2n1CC(=O)Nc1ccc(C(F)(F)F)nc1Cl")
"false"
>>> class_assignment("CCc1c(N2CCN(C(=O)c3nc(C)cc(F)c3O)CC2)c(=O)n2nc(C3=CCOCC3)nc2n1CC(=O)Nc1ccc(C(F)(F)F)nc1Cl")
"false"
>>> class_assignment("CCc1c(N2CCN(C(=O)c3ncccc3O)CC2)c(=O)n2nc(C3=CCCCO3)nc2n1CC(=O)Nc1ccc(C(F)(F)F)nc1C")
"false"
>>> class_assignment("CCc1c(N2CCN(C(=O)c3nccc(F)c3O)CC2)c(=O)n2nc(N3CCOCC3)nc2n1CC(=O)Nc1ccc(C(F)(F)F)cc1Cl")
"true"

We now examine a further molecule.
# input Is IC50 of Cc1ccnc(C(=O)N2CCN(c3c(C)n(CC(=O)Nc4ccc(C(F)(F)F)cc4)c4nc(C5=CCOCC5)nn4c3=O)CC2)c1O strictly below 0.1 µM?
# output false

* * *

Target: WRN helicase (Homo sapiens (Human))
Experiment: In vitro enzymatic activity assay on WRN helicase (DNA dependent ATPase assay, ADP-Glo)
Format: biochemical
Details: geometric means of at least 2 determinations; read-out: WRN ATPase Activity (IC50)
Readings of IC50 for the listed compounds
Give the value, in units of µM, as a plain number.

>>> val("CCc1c(N2CCN(C(=O)c3ncccc3O)CC2)c(=O)n2nc(N3CCOCC3)nc2n1CC(=O)Nc1cc(Cl)c(C(F)(F)F)cc1C")
0.04

# input State the recorded IC50 for this entry: CCc1c(N2CCN(C(=O)c3ncccc3O)CC2)c(=O)n2nc(C3=CC[C@H](OC)CC3)nc2n1CC(=O)Nc1ccc(C(F)(F)F)nc1Cl (single isomer, unassigned) [Example 25a]
# output 0.16

# input State the recorded IC50 for this entry: CCc1c(N2CCN(C(=O)c3ncnc(C)c3O)CC2)c(=O)n2nc(C3=CCOCC3)nc2n1CC(=O)Nc1ccc(S(F)(F)(F)(F)F)cc1C
# output 0.06

# input State the recorded IC50 for this entry: CCc1c(N2CCN(C(=O)c3ncnc(C)c3O)C[C@H]2C)c(=O)n2nc(C3=CCOCC3)nc2n1CC(=O)Nc1ccc(C(F)(F)F)cc1Cl
# output 0.37

# input State the recorded IC50 for this entry: CCc1c(N2CCN(C(=O)c3ncccc3O)CC2)c(=O)n2nc(C3=CC[C@H](OC)CC3)nc2n1CC(=O)Nc1ccc(C(F)(F)F)cc1C (single isomer, unassigned) [Example 80a]
# output 0.07

# input State the recorded IC50 for this entry: Cc1c(N2CCN(C(=O)c3ncccc3O)CC2)c(=O)n2nc(C3=CCOCC3)nc2n1CC(=O)Nc1ccc(C(F)(F)F)cc1
# output 0.04

The measured values listed here are drawn from patent US11878973B2.
